# tested.target: Human M4 (Homo sapiens, UniProt P08173)
# Construct: expressed in transfected cells
# assay.overview: mAChR M4 cell-based functional assay (calcium flux, PAM mode)
# measurement.setup: CHO-K1, % ACh maximum at 30 μM; hM4-Gqi5 CHO-K1 cells
readout.name: Emax at 30 µM (%)
Unit % implied. Number only.

Here's what some known entries look like.
> print(dat)
                                    compound                            tested.target   readout.name  observed.measurement
 1  Cc1cc2nccc(=O)n2nc1N1CC[C@@H](Oc2ccc3c(c2)OCCO3)[C@@H](F)C1 [Compound 34]  Human M4 (Homo sapiens, UniProt P08173)  Emax at 30 µM                   116
 2  [2H]C1([2H])Oc2ccc(OC3CCN(c4nn5c(=O)c(N6CCC6)cnc5cc4C)CC3)cc2OC1([2H])[2H] [Compound 35]  Human M4 (Homo sapiens, UniProt P08173)  Emax at 30 µM                   114
 3  Cc1cc2nccc(=O)n2nc1N1CC[C@@H](Oc2ccc3c(c2)OCO3)[C@H](F)C1 [Compound 53]  Human M4 (Homo sapiens, UniProt P08173)  Emax at 30 µM                    86
 4  Cc1cc(=O)n2nc(N3CC[C@@H](Oc4ccc5c(c4)OCCO5)[C@@H](F)C3)c(C)cc2n1 [Compound 33]  Human M4 (Homo sapiens, UniProt P08173)  Emax at 30 µM                   117
 5  [2H]C1([2H])Oc2ccc(OC3CCN(c4nn5c(=O)cc(C)nc5c(C)c4C)CC3)cc2OC1([2H])[2H] [Compound 5]  Human M4 (Homo sapiens, UniProt P08173)  Emax at 30 µM                    81
 6  [2H]C1(Oc2ccc3c(c2)OCCO3)CCN(c2nn3c(=O)c(C)c(C)nc3cc2C)CC1 [Compound 60]  Human M4 (Homo sapiens, UniProt P08173)  Emax at 30 µM                    91
 7  [2H]C1(Oc2ccc3c(c2)OCCO3)CCN(c2nn3c(=O)c(F)c(C)nc3cc2C)CC1 [Compound 50]  Human M4 (Homo sapiens, UniProt P08173)  Emax at 30 µM                    93
 8  [2H]C1([2H])Oc2ccc(OC3CCN(c4nn5c(=O)ccnc5c(C)c4COC)CC3)cc2OC1([2H])[2H] [Compound 18]  Human M4 (Homo sapiens, UniProt P08173)  Emax at 30 µM                    90
 9  [2H]C1([2H])Oc2ccc(OC3CCN(c4nn5c(=O)cc(COC)nc5cc4C)CC3)cc2OC1([2H])[2H] [Compound 14]  Human M4 (Homo sapiens, UniProt P08173)  Emax at 30 µM                   101
10  Cc1ccc(OC2CCN(c3nn4c(=O)cc(C(F)F)nc4c(C)c3C)CC2)cc1 [Compound 85]  Human M4 (Homo sapiens, UniProt P08173)  Emax at 30 µM                   101

// query Would you kindly share the measured Emax at 30 µM for [2H]C1([2H])Oc2ccc(OC3CCN(c4nn5c(=O)cc(C6CC6)nc5cc4C)CC3)cc2OC1([2H])[2H] [Compound 10] ?
// result 73

// query Would you kindly share the measured Emax at 30 µM for [2H]C1([2H])Oc2ccc(O[C@H]3CCN(c4nn5c(=O)ccnc5c(C)c4C)C[C@@H]3F)cc2OC1([2H])[2H] [Compound 117] ?
// result 93

// query Would you kindly share the measured Emax at 30 µM for [2H]C1([2H])Oc2ccc(OC3CCN(c4nn5c(=O)ccnc5c(C)c4C4CC4)CC3)cc2OC1([2H])[2H] [Compound 105] ?
// result 81

// query Would you kindly share the measured Emax at 30 µM for [2H]C1(Oc2ccc3c(c2)OCCCO3)CCN(c2nn3c(=O)cc(C(F)F)nc3cc2C)CC1 [Compound 67] ?
// result 109

// query Would you kindly share the measured Emax at 30 µM for [2H]C1([2H])Oc2ccc(O[C@@H]3CCN(c4nn5c(=O)ccnc5cc4C)C[C@@H]3F)cc2OC1([2H])[2H] [Compound 111] ?
// result 106

====

# tested.target: Human M4 (Homo sapiens)
# Construct: expressed in transfected cells
# assay.overview: mAChR M4 cell-based functional assay (calcium flux, PAM mode)
# measurement.setup: CHO-K1, % ACh maximum at 30 μM; hM4-Gqi5 CHO-K1 cells
# Method: […] Calcium flux was measured using the Functional Drug Screening System (FDSS) 6000 or 7000 (Hamamatsu Corporation, Tokyo, Japan) as an increase in the fluorescent static ratio. […] Agonist activity was analyzed as a concentration-dependent increase in calcium mobilization upon compound addition. Positive allosteric modulator activity was analyzed as a concentration-dependent increase in the EC20 acetylcholine response. […]
Reported Emax at 30 µM values for a set of molecules
Unit % implied. Number only.

> print(dat)
                                   molecule   readout.name  observed.measurement
1  Cc1ccc(OC2CCN(c3nn4c(=O)cc(C)nc4cc3C)CC2)cn1  Emax at 30 µM                    84

// query Would you kindly share the measured Emax at 30 µM for Cc1cc2nccc(=O)n2nc1N1CC[C@H](Oc2ccc3c(c2)OCCO3)[C@@H](C)C1 (single isomer, unassigned) ?
// result 78

// query Would you kindly share the measured Emax at 30 µM for "[2H]C1([2H])Oc2ccc(O[C@@H]3CCN(c4nn5c(=O)ccnc5cc4C)C[C@H]3F)cc2OC1([2H])[2H]" ?
// result 114

// query Would you kindly share the measured Emax at 30 µM for "Cc1cc2nccc(=O)n2nc1N1CC[C@@H](Oc2ccc3c(c2)OCCCO3)[C@H](F)C1" ?
// result 80

====

# tested.target: Human M4 (Homo sapiens, UniProt P08173)
# Sequence (P08173 1-479): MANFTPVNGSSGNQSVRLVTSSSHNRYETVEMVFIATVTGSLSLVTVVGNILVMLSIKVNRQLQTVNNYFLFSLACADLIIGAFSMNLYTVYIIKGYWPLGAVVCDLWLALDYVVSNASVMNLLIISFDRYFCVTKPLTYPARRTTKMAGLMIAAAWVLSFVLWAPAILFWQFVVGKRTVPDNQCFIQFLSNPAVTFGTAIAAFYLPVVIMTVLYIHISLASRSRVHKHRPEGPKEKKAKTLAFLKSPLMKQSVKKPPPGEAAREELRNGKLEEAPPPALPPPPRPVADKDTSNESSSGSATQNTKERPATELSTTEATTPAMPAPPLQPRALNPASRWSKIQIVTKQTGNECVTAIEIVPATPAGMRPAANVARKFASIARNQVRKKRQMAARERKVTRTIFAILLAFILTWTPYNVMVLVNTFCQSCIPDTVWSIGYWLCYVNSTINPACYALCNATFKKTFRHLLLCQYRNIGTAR
# assay.overview: mAChR M4 cell-based functional assay (calcium flux, PAM mode)
# measurement.setup: hM4-Gqi5 CHO-K1 cells; concentration-dependent increase in the EC20 acetylcholine response
readout.name: EC50 (nM)
Unit nM implied. Number only.

Here's what some known entries look like.
> print(dat)
                                   compound  readout.name  display.unit  observed.measurement
1  Cc1cc2nccc(=O)n2nc1N1CC[C@H](Oc2ccc3c(c2)OCCO3)[C@H](F)C1 [Compound 43]          EC50            nM                   171
2  Cc1c(N2CCC(Oc3ccc4c(c3)OCCO4)CC2)nn2c(=O)cc(C(C)C)nc2c1C [Compound 12]          EC50            nM                    59
3  Cc1cc2ncc(Cl)c(=O)n2nc1N1CCC(Oc2ccc3c(c2)OCCO3)CC1 [Compound 31]          EC50            nM                    32
4  [2H]C1([2H])Oc2ccc(OC3CCN(c4nn5c(=O)ccnc5c(C)c4C)CC3)cc2OC1([2H])[2H] [Compound 2]          EC50            nM                    26

// query Would you kindly share the measured EC50 for [2H]C1(Oc2ccc3c(c2)OCCO3)CCN(c2nn3c(=O)cc(C(F)(F)F)nc3cc2C)CC1 [Compound 49] ?
// result 10

// query Would you kindly share the measured EC50 for Cc1c(N2CCC(Oc3ccc(Cl)cc3)CC2)nn2c(=O)cc(C(F)F)nc2c1C [Compound 79] ?
// result 358

// query Would you kindly share the measured EC50 for Cc1cc2nccc(=O)n2nc1N1CC[C@@H](Oc2ccc3c(c2)OCO3)[C@H](F)C1 [Compound 53] ?
// result 160

// query Would you kindly share the measured EC50 for Cc1c(N2CCC(Oc3ccc(C(F)(F)F)cc3)CC2)nn2c(=O)ccnc2c1C [Compound 80] ?
// result 2180

// query Would you kindly share the measured EC50 for [2H]C1(Oc2ccc3c(c2)OC([2H])([2H])C([2H])([2H])O3)CCN(c2nn3c(=O)ccnc3c(C)c2COC)CC1 [Compound 102] ?
// result 170

// query Would you kindly share the measured EC50 for CCc1cc(=O)n2nc(N3CCC(Oc4ccc5c(c4)OCCO5)CC3)c(C)c(C)c2n1 [Compound 11] ?
// result 49

// query Would you kindly share the measured EC50 for Cc1c(N2CCC(Oc3ccc(C(F)(F)F)cc3)CC2)nn2c(=O)cc(C(F)F)nc2c1C [Compound 81] ?
// result 2300

// query Would you kindly share the measured EC50 for Cc1cc(=O)n2nc(N3CCC(Oc4ccc5c(c4)C(=O)NCC5)CC3)c(C)cc2n1 [Compound 72] ?
// result 1540

// query Would you kindly share the measured EC50 for [2H]C1([2H])Oc2ccc(OC3CCN(c4nn5c(=O)ccnc5cc4C)CC3)cc2OC1([2H])[2H] [Compound 1] ?
// result 130

// query Would you kindly share the measured EC50 for [2H]C1([2H])Oc2ccc(OC3CCN(c4nn5c(=O)c(C6CC6)cnc5cc4C)CC3)cc2OC1([2H])[2H] [Compound 30] ?
// result 73

// query Would you kindly share the measured EC50 for Cc1cc(=O)n2nc(N3CC[C@@H](Oc4ccc5c(c4)OCCO5)[C@@H](F)C3)c(C)cc2n1 [Compound 33] ?
// result 40

// query Would you kindly share the measured EC50 for [2H]C1([2H])Oc2ccc(OC3CCN(c4nn5c(=O)cc(C)nc5cc4C)CC3)cc2OC1([2H])[2H] [Compound 3] ?
// result 30

Origin of values: patent US11884676B2
